// inhibition in vivo at 90 mg/kg lookup, one value per entry
Tested on: Lewis lung cancer (highly metastatic mouse lung cancer) cells
Experiment: Mouse Lewis lung cancer metastasis model
Format: in vivo, C57/BL6J black mice
Conditions: Lewis lung carcinoma, ip, LLC, 90 mg/kg intraperitoneal once a day, vs DMSO solvent control, read-out: tumor lung metastasis inhibition rate % of mouse Lewis lung cancer
Report the figure in % without appending any unit label.

# compound, system, experimental.result
rows = [
    ("CCNC(=O)CCC(NC(=O)c1cc2ccccc2oc1=O)C(=O)OCC (stereo not drawn)", "Lewis lung cancer (highly metastatic mouse lung cancer) cells", 69.6),
    ("CCNC(=O)CC[C@@H](NC(=O)c1cc2cc(Cl)cc(Cl)c2oc1=O)C(=O)OCC", "Lewis lung cancer (highly metastatic mouse lung cancer) cells", 79.9),
    ("CCNC(=O)CCC(NC(=O)c1cc2cc([N+](=O)[O-])ccc2oc1=O)C(=O)OCC (stereo in doubt)", "Lewis lung cancer (highly metastatic mouse lung cancer) cells", 75.8),
    ("CCNC(=O)CC[C@H](N)C(=O)OCC", "Lewis lung cancer (highly metastatic mouse lung cancer) cells", 54.7),
    ("CCNC(=O)CCC(NC(=O)c1cc2ccccc2oc1=O)C(=O)OC (stereo not drawn)", "Lewis lung cancer (highly metastatic mouse lung cancer) cells", 60.9),
]

Okay, next one:
Exercise: Which inhibition in vivo at 90 mg/kg is reported with Lewis lung cancer (highly metastatic mouse lung cancer) cells for this entry: CCNC(=O)CC[C@H](N)C(=O)OC ?
Key: 38.5

From: patent US9518038B2
